# SYSTEM_UNDER_TEST: Gamma-aminobutyric acid type B receptor subunit 1 (Rattus norvegicus, UniProt Q9Z0U4)
# Sequence (Q9Z0U4 whole entry): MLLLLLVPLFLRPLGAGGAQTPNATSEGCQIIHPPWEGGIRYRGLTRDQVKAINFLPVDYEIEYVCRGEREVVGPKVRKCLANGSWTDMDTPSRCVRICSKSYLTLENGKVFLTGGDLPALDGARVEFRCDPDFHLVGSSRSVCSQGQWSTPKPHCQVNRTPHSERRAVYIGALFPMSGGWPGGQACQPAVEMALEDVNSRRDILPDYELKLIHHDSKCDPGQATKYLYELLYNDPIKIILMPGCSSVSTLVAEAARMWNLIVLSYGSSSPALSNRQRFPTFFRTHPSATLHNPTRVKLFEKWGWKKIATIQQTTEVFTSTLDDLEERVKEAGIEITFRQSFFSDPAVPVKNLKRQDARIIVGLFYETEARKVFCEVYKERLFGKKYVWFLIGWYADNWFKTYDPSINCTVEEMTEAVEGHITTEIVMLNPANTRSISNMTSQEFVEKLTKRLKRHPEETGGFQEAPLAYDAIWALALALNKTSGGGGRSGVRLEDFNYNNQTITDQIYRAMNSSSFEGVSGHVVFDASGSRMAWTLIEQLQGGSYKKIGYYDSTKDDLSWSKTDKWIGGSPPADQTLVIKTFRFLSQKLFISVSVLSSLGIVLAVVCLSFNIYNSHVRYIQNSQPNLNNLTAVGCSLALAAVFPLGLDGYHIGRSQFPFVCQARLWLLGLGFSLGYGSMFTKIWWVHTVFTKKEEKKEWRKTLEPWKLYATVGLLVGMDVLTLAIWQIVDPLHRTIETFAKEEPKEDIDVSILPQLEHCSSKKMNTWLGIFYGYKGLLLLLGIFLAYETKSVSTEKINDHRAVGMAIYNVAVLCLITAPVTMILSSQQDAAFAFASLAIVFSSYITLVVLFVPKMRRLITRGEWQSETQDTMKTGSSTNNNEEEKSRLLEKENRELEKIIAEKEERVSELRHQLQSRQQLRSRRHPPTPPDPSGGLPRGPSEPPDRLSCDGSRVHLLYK
# PROTOCOL_DESCRIPTION: Inhibition of binding of [3H]CGP-27492 to gamma-aminobutyric acid type B receptor of rat cortex.
Labels assigned by IC50 range: bottom end = under 8 µM, midrange = from 8 µM up to 30 µM, top end = 30 µM and over

Examples with answers:
CP(=O)(O)CC(O)(CN)c1ccc(Cl)cc1 (configuration not stated) ... bottom end
NCCCP(=O)(O)CCc1ccccc1 ... midrange
CC(C)OC(OC(C)C)P(=O)(O)CCCN ... midrange

Consider the additional compound presented here.
// query Hey, which category is "CC(=O)CCP(=O)(O)CCCN" in, do you know?
// result bottom end

----------
# Species: Rattus norvegicus
# PROTOCOL_DESCRIPTION: The compound was tested for enhancement of electrically induced release of [3H]GABA from rat cortical slices.
# Type: functional
Labels assigned by EC150 range: 1 (below 8 µM), 2 (8 µM to below 30 µM), 3 (30 µM or more)

Examples with answers:
NCCCP(=O)(O)CC(O)CNC(=O)c1ccccc1C(N)=O (configuration not stated) ... 2
CCOC(OCC)P(=O)(O)CC(CN)c1ccc(Cl)cc1 (configuration not stated) ... 2
NCCCP(=O)(O)CC1CC1 ... 3
CCCCP(=O)(O)CC(O)(CN)c1ccc(Cl)cc1 (configuration not stated) ... 3
NC[C@H](O)CP(=O)(O)CC1CCCCC1 ... 1

// query Hey, which category is "CCCCP(=O)(O)CC(=O)CN" in, do you know?
// result 1

// query Hey, which category is "CC(C)OC(OC(C)C)P(=O)(O)CCCN" in, do you know?
// result 3

// query Hey, which category is "CC(C)CP(=O)(O)CCCN" in, do you know?
// result 3

// query Hey, which category is "NCCCP(=O)(O)CCC1CCCCC1" in, do you know?
// result 2

// query Hey, which category is NCCCP(=O)(O)C1CCCCO1 (configuration not stated) in, do you know?
// result 3

// query Hey, which category is CP(=O)(O)CC(CN)c1ccc(Cl)cc1 (configuration not stated) in, do you know?
// result 2

// query Hey, which category is "NCC(=O)CP(=O)(O)CC1CC1" in, do you know?
// result 1

// query Hey, which category is "NCCCP(=O)(O)Cc1ccccc1" in, do you know?
// result 1

----------
# SYSTEM_UNDER_TEST: Gamma-aminobutyric acid type B receptor subunit 1 (Rattus norvegicus, UniProt Q9Z0U4)
# PROTOCOL_DESCRIPTION: Inhibition of binding of [3H]CGP-27492 to gamma-aminobutyric acid type B receptor of rat cortex.
Would you kindly list pIC50 for each of these compounds?
One number for each entry, as −log10 of the molar value.

Solved entries (count: 5):
CCCCP(=O)(O)CC(C)(O)CN (stereo not drawn) ... 4.35
NCCC[PH](=O)O ... 8.30
NCCCP(=O)(O)Cc1ccccn1 ... 5.22
NCCCP(=O)(O)CC1CC1 ... 4.43
CCCP(=O)(O)CCCN ... 4.80

Hi team, please reply with pIC50 for each item in this list.
1. NCCCP(=O)(O)C(O)c1ccccc1 (stereo not drawn)
2. NCCCP(=O)(O)CC1CCCCC1
3. CCCC(O)P(=O)(O)CCCN (stereo not drawn)
4. NCCCP(=O)(O)Cc1ccc(F)cc1

// result
[5.10, 5.40, 4.74, 4.28]

Hi team, please reply with pIC50 for each item in this list.
1. NCCCP(=O)(O)CCCN
2. CCCCP(=O)(O)C(C)CCN (stereo not drawn)
3. CC(C)CP(=O)(O)CCCN
4. NCC(O)CP(=O)(O)Cc1ccccc1 (stereo not drawn)
5. NCCCP(=O)(O)CCC1CCCCO1 (stereo not drawn)
6. CCCOC(OCCC)P(=O)(O)CCCN
7. NCCCP(=O)(O)CC(O)CNC(=O)c1ccccc1C(N)=O (stereo not drawn)
8. NCC(=O)CP(=O)(O)CC1CCCCC1

// result
1. 4.54
2. 3.47
3. 4.85
4. 5.10
5. 5.70
6. 4.55
7. 5.70
8. 4.30

Hi team, please reply with pIC50 for each item in this list.
1. CCOC(OCC)P(=O)(O)C[C@@H](O)CN
2. CCOC(OCC)P(=O)(O)CC(O)CN (stereo not drawn)
3. CCCCP(=O)(O)CC(O)CN (stereo not drawn)

// result
[4.92, 4.80, 4.54]
